Each record here notes measured LD50.
- ASSAY_METHOD_TEXT: in vivo
- EXPERIMENTAL_SETUP: both sexes, mouse, in vivo, ip; C57BI/6 mice, acute toxicity

Please review the entries below; each comes with its answer.
mol_smiles=COc1ccc(Cc2nn3c(Cc4cc(OC)c(OC)cc4S(=O)(=O)N(C)C)nnc3s2)cc1 value_reported="> 500 mg/kg"
mol_smiles=COc1cc(Cc2nnc3sc(-c4ccc(Cl)cc4)nn23)c(S(=O)(=O)N(C)C)cc1OC value_reported="430 mg/kg"
mol_smiles=COc1cc(Cc2nnc3sc(-c4ccc([N+](=O)[O-])cc4Cl)nn23)c(S(=O)(=O)N(C)C)cc1OC value_reported="> 500 mg/kg"
mol_smiles=COc1cc(Cc2nnc3sc(/C=C/c4ccc(Cl)cc4)nn23)c(S(=O)(=O)N(C)C)cc1OC value_reported="365 mg/kg"
mol_smiles=COc1ccc(Cc2nn3c(Cc4cc(OC)c(OC)cc4S(=O)(=O)N(C)C)nnc3s2)cc1OC value_reported="> 500 mg/kg"
mol_smiles=COc1cc(Cc2nnc3sc(Cc4ccccc4)nn23)c(S(=O)(=O)N(C)C)cc1OC value_reported="480 mg/kg"

input: Recorded LD50 for COc1ccc(CCc2nn3c(Cc4cc(OC)c(OC)cc4S(=O)(=O)N(C)C)nnc3s2)cc1 , please?
output: > 500 mg/kg

input: Recorded LD50 for COc1cccc(Cc2nn3c(Cc4cc(OC)c(OC)cc4S(=O)(=O)N(C)C)nnc3s2)c1 , please?
output: > 500 mg/kg

input: Recorded LD50 for COc1cc(Cc2nnc3sc(COc4ccccc4)nn23)c(S(=O)(=O)N(C)C)cc1OC , please?
output: > 500 mg/kg

input: Recorded LD50 for COc1ccccc1CCc1nn2c(Cc3cc(OC)c(OC)cc3S(=O)(=O)N(C)C)nnc2s1 , please?
output: > 500 mg/kg

###

- System: UWB1.289 human ovarian cancer cell line (mutant BRCA1)
- ASSAY_METHOD_TEXT: MTT cytostatic-cytotoxic activity, UWB1.289
- Assay type: cell-based
- EXPERIMENTAL_SETUP: Homo sapiens, UWB1289, UWB1.289, 48 h treatment, kills 50% of the cells
pIC50: −log10 of the molar value.
Each record here notes measured pIC50.

Please review the entries below; each comes with its answer.
mol_smiles=COc1cc(Cc2nnc3sc(-c4cccc(Cl)c4)nn23)c(S(=O)(=O)N(C)C)cc1OC property_name=pIC50 value_reported="< 4.00"
mol_smiles=COc1cc(Cc2nnc3sc(-c4ccccc4N)nn23)c(S(=O)(=O)N(C)C)cc1OC property_name=pIC50 value_reported="< 4.00"
mol_smiles=COc1ccc(Cc2nn3c(Cc4cc(OC)c(OC)cc4S(=O)(=O)N(C)C)nnc3s2)cc1 property_name=pIC50 value_reported="< 4.00"
mol_smiles=COc1cc(Cc2nnc3sc(-c4ccc(N)cc4)nn23)c(S(=O)(=O)N(C)C)cc1OC property_name=pIC50 value_reported="< 4.00"

input: Recorded pIC50 for COc1cc(Cc2nnc3sc(Cc4ccccc4)nn23)c(S(=O)(=O)N(C)C)cc1OC , please?
output: < 4.00

input: Recorded pIC50 for COc1cc(Cc2nnc3sc(-c4ccc(Cl)cc4)nn23)c(S(=O)(=O)N(C)C)cc1OC , please?
output: < 4.00

input: Recorded pIC50 for COc1cc(Cc2nnc3sc(-c4ccccc4)nn23)c(S(=O)(=O)N(C)C)cc1OC , please?
output: < 4.00

input: Recorded pIC50 for COc1cc(Cc2nnc3sc(/C=C/c4ccc(Cl)cc4)nn23)c(S(=O)(=O)N(C)C)cc1OC , please?
output: 4.14

input: Recorded pIC50 for COc1cc(Cc2nnc3sc(/C=C/c4ccc(F)cc4)nn23)c(S(=O)(=O)N(C)C)cc1OC , please?
output: 4.22

Ref: patent US10513529B2
